Molecular target: T1, cell-bound CD73 (human, UniProt P21589 27-549)
T1 sequence (looked up): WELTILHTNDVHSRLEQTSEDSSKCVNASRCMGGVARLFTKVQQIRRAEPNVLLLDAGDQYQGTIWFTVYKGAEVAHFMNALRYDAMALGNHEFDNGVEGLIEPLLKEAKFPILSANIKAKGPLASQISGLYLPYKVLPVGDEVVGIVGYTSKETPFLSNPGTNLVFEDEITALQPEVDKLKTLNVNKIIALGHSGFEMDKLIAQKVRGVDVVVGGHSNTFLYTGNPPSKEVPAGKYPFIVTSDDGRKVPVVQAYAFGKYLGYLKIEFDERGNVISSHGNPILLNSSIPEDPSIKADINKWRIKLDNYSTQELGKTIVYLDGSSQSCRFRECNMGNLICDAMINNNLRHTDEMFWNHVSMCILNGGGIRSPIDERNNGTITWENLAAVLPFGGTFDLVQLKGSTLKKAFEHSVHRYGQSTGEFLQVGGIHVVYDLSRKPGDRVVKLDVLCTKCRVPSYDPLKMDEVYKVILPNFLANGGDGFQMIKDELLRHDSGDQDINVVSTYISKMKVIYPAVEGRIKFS
Experiment: cell-based or functional assay
Reported property: Max. adenosine inhibition [%] in Colo201 cells
Please answer in the form of a number followed by its unit of measurement.

The following binders each have a reported value; give each one's Max. adenosine inhibition [%] in Colo201 cells.
1. C6 (antibody, human IgG1, kappa, L234A L235A, V domains shown, Humanized monoclonal antibody; also called anti-CD73 antibody C6) VH: QVQLVQSGAEVKKPGDSVKVSCKASGYTFTTYWMHWVRQAPGQGLEWMGAIYPGNSDTTYNQKFKGKVTMTRDTSTSTVYMKLSSLRSEDTAVYYCARLLDYAMDYWGQGTLVTVSS VL: DIQMTQSPSSLSASVGDRVTITCRASQDIRNYLNWHQQKPGKAPKLLIWYTSRLHSGVPSRFSGSGSGTDYTLTISSLQPEDFATYFCQQGNTLPWTFGQGTKLEIKR
2. C4 (antibody, human IgG1, kappa, L234A L235A, V domains shown, Humanized monoclonal antibody; also called C04; inventive anti-CD73 antibody C4) VH: QVQLVQSGAEVKKPGDSVKVSCKASGYTFTTYWMHWVRQAPGQGLEWMGAIYPGLSDTTYNQKFKGKVTMTRDTSTSTVYMKLSSLRSEDTAVYYCARLLDYAMDYWGQGTLVTVSS VL: DIQMTQSPSSLSASVGDRVTITCRASQDIRSYLNWHQQKPGKAPKLLIWYTSRLHSGVPSRFSGSGSGTDYTLTISSLQPEDFATYFCQQGETLPWTFGQGTKLEIKR
3. C3 (antibody, human IgG1, kappa, L234A L235A, V domains shown, Humanized monoclonal antibody; also called anti-CD73 antibody C3) VH: QVQLVQSGAEVKKPGDSVKVSCKASGYTFTTYWMHWVRQAPGQGLEWMGAIYPGLSDTTYSQKFKGKVTMTRDTSTSTVYMKLSSLRSEDTAVYYCARLLDYAMDYWGQGTLVTVSS VL: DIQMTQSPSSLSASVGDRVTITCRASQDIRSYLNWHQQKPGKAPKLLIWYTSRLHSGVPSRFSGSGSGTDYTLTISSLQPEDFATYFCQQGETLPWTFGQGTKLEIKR
4. C1 (antibody, human IgG1, kappa, L234A L235A, V domains shown, Humanized monoclonal antibody; also called anti-CD73 antibody C1) VH: QVQLVQSGAEVKKPGDSVKVSCKASGYTFTTYWMHWVRQAPGQGLEWMGAIYPGFSDTTYSQKFKGKVTMTRDTSTSTVYMKLSSLRSEDTAVYYCARLLDYAMDYWGQGTLVTVSS VL: DIQMTQSPSSLSASVGDRVTITCRASQDIRSYLNWHQQKPGKAPKLLIWYTSRLHSGVPSRFSGSGSGTDYTLTISSLEPEDFATYFCQQGETLPWTFGQGTKLEIKR

1: 88%; 2: 88%; 3: 88%; 4: 86%
